Values from BigSolDB 2.1

conditions: in n-pentanol, 318.15 K
endpointLabel: solubility (mole fraction)

QUERY: Identify solubility (mole fraction) associated with the compound Cl.c1ccc([C@H]2CN3CCSC3=N2)cc1
RESULT: 0.00605

* * *

conditions: in n-hexanol, 313.15 K
endpointLabel: solubility (mole fraction)
Give only the figure.

QUERY: Please look at this compound and report its solubility (mole fraction): Cl.c1ccc([C@H]2CN3CCSC3=N2)cc1
RESULT: 0.0035

* * *

conditions: in ethanol, 308.15 K
endpointLabel: solubility (mole fraction)
No unit in the answer, please; the number alone is enough.

QUERY: // Input: Cl.c1ccc([C@H]2CN3CCSC3=N2)cc1 . Output its solubility (mole fraction) only.
RESULT: 0.0178
